target_desc: UniProtKB Q02156
Sequence (Q02156 whole entry): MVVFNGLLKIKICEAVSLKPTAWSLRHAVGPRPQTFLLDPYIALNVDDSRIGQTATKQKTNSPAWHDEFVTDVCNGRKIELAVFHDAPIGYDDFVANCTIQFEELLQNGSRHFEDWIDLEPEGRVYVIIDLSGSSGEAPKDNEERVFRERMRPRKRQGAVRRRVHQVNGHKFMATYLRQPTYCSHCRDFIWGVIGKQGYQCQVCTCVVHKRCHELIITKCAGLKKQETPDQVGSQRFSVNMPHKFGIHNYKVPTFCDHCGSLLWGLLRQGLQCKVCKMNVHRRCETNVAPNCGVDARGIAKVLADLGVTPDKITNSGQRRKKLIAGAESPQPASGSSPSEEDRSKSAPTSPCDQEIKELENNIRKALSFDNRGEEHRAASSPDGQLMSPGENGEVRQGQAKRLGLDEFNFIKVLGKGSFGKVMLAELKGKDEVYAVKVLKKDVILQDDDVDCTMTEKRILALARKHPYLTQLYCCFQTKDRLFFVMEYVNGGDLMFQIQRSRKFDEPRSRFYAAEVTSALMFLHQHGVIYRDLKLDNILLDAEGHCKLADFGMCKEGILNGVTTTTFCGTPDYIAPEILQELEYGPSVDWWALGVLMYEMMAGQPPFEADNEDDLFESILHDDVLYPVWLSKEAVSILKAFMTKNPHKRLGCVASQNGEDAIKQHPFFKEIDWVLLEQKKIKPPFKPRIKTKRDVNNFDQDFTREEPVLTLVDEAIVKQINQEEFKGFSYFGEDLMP
assay_overview: Displacement of [3H]-PDBu from protein kinase C epsilon-C1A domain
pKi: −log10 of the molar value.

# chemical_string, pKi
data = [
    ("CCCCCCCCCCCN1c2ccccc2C[C@@H](CO)OC(=O)[C@@H]1C(C)C", 5.27),
    ("CCCCCCCCCCc1ccc2c(c1)N(C)[C@@H](C(C)C)C(=O)O[C@H](CO)C2", 5.32),
    ("CCCCCCCCCCc1cccc2c1C[C@@H](CO)OC(=O)[C@H](C(C)C)N2C", 5.10),
]
